Consider the following sequences and their measured binding signal readings.
Molecular target: OsWRKY34 (Oryza sativa, UniProt Q0JBA9 1-250)
Sequence (Q0JBA9 entry or part of it): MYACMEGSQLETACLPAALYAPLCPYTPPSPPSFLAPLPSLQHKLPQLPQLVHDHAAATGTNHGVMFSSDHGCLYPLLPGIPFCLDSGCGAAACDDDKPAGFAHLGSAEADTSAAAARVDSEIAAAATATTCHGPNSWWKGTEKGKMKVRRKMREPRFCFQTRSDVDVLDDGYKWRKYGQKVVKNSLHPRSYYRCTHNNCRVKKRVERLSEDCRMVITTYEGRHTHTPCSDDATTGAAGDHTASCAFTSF
Assay: protein-binding microarray (RPBM); PBS, 2% BSA, 51.3 ng/ul salmon testes DNA, 50 uM zinc acetate, 200 nM TF, 25 C, 1 h; high values mean tight binding
Conditions: protein: recombinant; tags: N-terminal polyhistidine and DsRed monomer fusion (pET32a); label: CyDye5-dUTP incorporated in the synthesized complementary strand; 3' TTTTT single-stranded linker to array surface; dsDNA, one strand shown
In all, about 68,000 sequences were measured (“fluorescence intensity (a.u.)”: median about 9,100, highest 2% from about 16,000 on). This is one part of a sample in which the highest values are shown more often than they occur.

CGTGGTGGTGGTAGGGGAGGGGATGGATGATATGGCGTGACGGAGTCACCTAGTGCAG
22400 fluorescence intensity (a.u.)
GCTCCCTGCTGCCATATCCTATCATCTCCTCTCTTCCTCTCGGAGTCACCTAGTGCAG
8540 fluorescence intensity (a.u.)
CTGCCGCGCTTCGTCGCCGCGCTCGCCCGTCTTTCGCTCTCGGAGTCACCTAGTGCAG
8230 fluorescence intensity (a.u.)

# input for lookup
Prompt: Value lookup for binding signal; key = TGGGGTTTTCAGCTTGCCAATGCTGCATTATCTTCTTTTTCGGAGTCACCTAGTGCAG
Completion: 17200 fluorescence intensity (a.u.)
